Cited source for all entries: paper PMC10794952

Test system: P. aeruginosa ATCC 27853
TEST PROTOCOL: Broth microdilution MIC, P. aeruginosa ATCC 27853
Assay type: cell-based
MEASUREMENT SETUP: Pseudomonas aeruginosa, ATCC27853, P. aeruginosa ATCC 27853; +Fe: CAMHB + Fe; read-out: Minimum inhibitory concentrations
Description: Cefiderocol, a siderophore cephalosporin, was used as a positive control. Compound 18a was only tested on E. coli in both media conditions. […] The single-gene knock-out mutant strain of E. coli JW5503 (tolC knock-out) was obtained from the E. coli collection of the National BioResource Project at the National Institute of Genetics (Japan).[45] […] Preliminary screening was performed at 50 μM, and growth inhibition was measured after 24 h incubation at 37 °C. […]
ASSAY METRIC: MIC

COMPOUND: O=C(NCc1cc(=O)c(O)c[nH]1)c1ccc2nc(NC(=O)c3cc(Br)c(Br)[nH]3)sc2c1 [Compound 12]
RECORDED VALUE: > 50 µM
--
COMPOUND: CC(C)(O/N=C(\C(=O)N[C@@H]1C(=O)N2C(C(=O)[O-])=C(C[N+]3(CCNC(=O)c4ccc(O)c(O)c4Cl)CCCC3)CS[C@H]12)c1csc(N)n1)C(=O)O [Cefiderocol, reference compound]
RECORDED VALUE: 1 µM
--
COMPOUND: O=C(NCc1cc(=O)c(O)co1)c1ccc2nc(NC(=O)c3cc(Br)c(Br)[nH]3)sc2c1 [Compound 10]
RECORDED VALUE: > 50 µM
--
COMPOUND: Cc1[nH]c(C(=O)Nc2nc3c(OCc4cc(=O)c(O)c[nH]4)cc(C(=O)O)cc3s2)c(Cl)c1Cl [Compound 18b]
RECORDED VALUE: > 50 µM
